Documented composite z-score across a set of compounds
- System: XIP peptide (Xip251-270)
- METHOD: small-molecule binders of XIP peptide, primary screen, biochemical, small-molecule microarray, fluorescence 635/667 nm, 0.5 µg/mL protein (AID 1183)
- TEST_SETTINGS: small-molecule microarray binding, fluorescence 635 nm; higher = more signal
MEASURED_PARAMETER: composite z-score

COMPOUND	MEASURED_PARAMETER	REPORTED
O=C1O[C@@H](c2ccccc2)[C@@H](c2ccccc2)N2[C@@H](c3ccc(OCCO)cc3)[C@]3(C(=O)Nc4ccccc43)[C@@H](C(=O)O)[C@H]12	composite z-score	-0.105
CCOC(=O)C1=CC[C@@H](c2ccc(OCc3ccccc3)c(OC)c2)N(S(=O)(=O)c2ccc(C)cc2)[C@H]1c1ccc(SC)cc1	composite z-score	0.569
CCOC(=O)c1ccc(NC(=O)O[C@H]2[C@H](OC(=O)Nc3ccc4c(c3)OCO4)[C@@H](OC(=O)Nc3ccc4c(c3)OCO4)[C@@H](OC)O[C@@H]2CO)cc1	composite z-score	0.894
[N-]=[N+]=NCc1ccccc1[C@H]1OC(c2ccc(OCCCO)cc2)=N[C@@]1(CCS(=O)(=O)c1ccccc1)C(=O)N1CCCCC1	composite z-score	0.757
CN1C(=O)C2C=CC(C(O)c3ccccn3)N(N(c3ccccc3)c3ccccc3)C2C1=O (stereo not given)	composite z-score	0.891
CC(C)C(=C=CC[C@H](O)c1cccc(OCCO)c1)C[C@H](O)c1cc(Cl)cc(Cl)c1O	composite z-score	0.594
C=C(C)c1cc2c(c(CCCCCC)n1)[Si](C(C)C)(C(C)C)OC2	composite z-score	-0.115
O=C(NCC(F)(F)F)[C@@H]1c2ccccc2C(=O)N(Cc2ccccc2C(F)(F)F)[C@H]1c1ccc(CO)cc1	composite z-score	0.374
[N-]=[N+]=NCc1ccccc1C[C@@]1(C(=O)NCc2ccccc2)N=C(c2ccc(OCCCO)cc2)O[C@@H]1c1ccccc1N=[N+]=[N-]	composite z-score	0.558
COCCOC(=O)N1C(=O)[C@@]2(c3ccccc31)[C@H](C(=O)N1CCN(c3ncccn3)CC1)[C@H]1C(=O)O[C@H](c3ccccc3)[C@H](c3ccccc3)N1[C@@H]2c1ccc(O)cc1	composite z-score	0.854
Cc1cc(C)cc(N2C(=O)CSC2c2cccc([N+](=O)[O-])c2)c1 (stereo not given)	composite z-score	0.521
[N-]=[N+]=Nc1ccccc1[C@H]1OC(c2ccc(OCCCO)cc2)=N[C@@]1(CCS(=O)(=O)c1ccccc1)C(=O)NCCN1CCOCC1	composite z-score	0.868
COC(=O)CCCCCCC(=O)Nc1ccc(NC(=O)CCCC[P+](c2ccccc2)(c2ccccc2)c2ccccc2)cc1	composite z-score	0.102
CC(=O)NCCCC[C@@H]1NC(=O)[C@@H]2C[C@H](C(=O)NCCCC[N+](C)(C)C)[C@H](c3ccc(O)cc3)N2C1=O	composite z-score	0.842
[N-]=[N+]=NCc1ccccc1C[C@@]1(C(=O)N2CCCCC2)N=C(c2ccc(OCCCO)cc2)O[C@@H]1c1ccccc1	composite z-score	0.434

###

- METHOD: MM1S cell viability effects, profiling panel, calcein-AM fluorescence, 48 h, basal (AID 1165);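 further: viability of MM1S multiple myeloma cells under basal unstimulated conditions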
- TEST_SETTINGS: higher = more signal
MEASURED_PARAMETER: z-score

COMPOUND	MEASURED_PARAMETER	REPORTED
COC(=O)[C@@]1(Cc2ccc(OC)cc2)[C@@H]2C(=CC(=O)[C@H]2CC(=O)C(=O)N(C)C)CN1C(=O)c1ccccc1	z-score	-2.29
COCCOC(=O)N1C(=O)[C@@]2(c3cc(C#CC4(O)CCCCCC4)ccc31)[C@H](c1ccc(O)cc1)N1[C@H](c3ccccc3)[C@H](c3ccccc3)OC(=O)[C@H]1[C@@H]2C(=O)NC[C@H](O)c1ccccc1	z-score	-1.49
COC(=O)[C@@]1(Cc2ccccc2)[C@@H]2C(=CC(=O)[C@H]2CC(=O)C(=O)N(C)C)CN1C(=O)c1ccccc1	z-score	-2.52
CCOc1cc(C(O)C2C=CC3C(=O)N(c4ccccc4)C(=O)C3N2Nc2ccc(C#N)cc2)ccc1O (stereo unspecified)	z-score	-1.49
[N-]=[N+]=Nc1ccccc1[C@H]1OC(c2ccc(OCCCO)cc2)=N[C@@]1(CCS(=O)(=O)c1ccccc1)C(=O)NCCN1CCOCC1	z-score	-0.387
CCOC(=O)C[C@H]1[C@H](OC(=O)c2cc3ccccc3oc2=O)[C@@H](NC(=O)c2ccc(-c3ccccc3)cc2)c2cc(OCCCO)ccc2N1C(=O)c1ccccc1	z-score	0.172
